- Protocol summary: NCI Yeast Anticancer Drug Screen. Data for the wt1 strain (AID 149);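 note: 0% = growth of vehicle-treated wt1 cultures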
- Settings: S. cerevisiae wt1 strain (SPY 50644) growth inhibition; at 1.2 µM; hits give high values
The panel holds about 79,000 compounds, 15% with a hit somewhere; the sample as a whole holds those more often.
Property measured: growth inhibition (%)
Numbers only, in %.

Please review the following examples before continuing.
                                   molecule  display_unit  reported_value
0  COc1cccc(C(c2cc3c(cc2O)OCO3)N2CCOCC2)c1OC (stereo not drawn)             %              -2
1  CC[C@@]1(OC(=O)CN(C)C)C(=O)OCc2c1cc1n(c2=O)Cc2cc3c(N)cccc3nc2-1             %               0
2              c1ccc2c(c1)ccc1c3ccncc3ccc21             %              -6
3            CC(=O)c1cc2c(Cl)cc(Cl)cc2oc1=O             %             -38
4  CC(=O)[C@]1(O)Cc2c(O)c3c(c(O)c2[C@@H](OC2CC(N)C(O)C(C)O2)C1)C(=O)c1c(OCc2ccccc2)cccc1C3=O (stereo partly drawn)             %              -9
5  CC(=O)N1C(=O)/C(=C\C(=O)c2ccc([N+](=O)[O-])cc2)c2ccccc21             %             -10
6      O=C(/C=C/c1cccc2ccccc12)c1ccc(Cl)cc1             %             -30

Lab note: next molecule to report on.
[ask] Name the reported growth inhibition value associated with the molecule "COC(=O)CSc1nnc(CSc2ccc(Cl)cc2)n1-c1ccccc1"
[reply] -1
